Test system: cellular dehydrogenase activity
Condition info: composite Z-score vs DMSO; Conc 20 μM
Value kind: MTT

Compound	Value kind	Experimental result
COc1cc2c(cc1OC)[C@@H]1C(=O)c3ccc4c(c3O[C@@H]1CO2)CC(C(C)C)O4 (stereo partly drawn) [dihydrorotenone, reference compound]	MTT	−4.020
COc1cc(O)c(C(=O)/C=C/c2ccccc2)c(OC)c1	MTT	−0.298
CN[C@@H]1[C@@H](O[C@H]2O[C@H](CO)[C@@H](N)[C@H](O)[C@H]2O)OC2C[C@@H](N)[C@@H](O[C@H]3[C@H](O)[C@@H](O)[C@H](N)C[C@@H]3N)OC2[C@@H]1O (stereo partly drawn)	MTT	−0.808
